Data origin, for the record: ChEMBL document CHEMBL4118140

Test system: RAW264.7
RUN_DESCRIPTION: Antiinflammatory activity in mouse RAW264.7 cells assessed as reduction in LPS-induced NO production at 10 uM after 18 hrs by Griess assay relative to control
Assay type: functional
STATED_CONDITIONS: RAW264.7, 18 h
Task for the reader: assign each of the following molecules its reported inhibition at 10 µM.
Just the number please, in %, no unit attached.

# query: inhibition at 10 µM of entry COc1cc(OC)c2c(c1)OC/C(=C\c1ccccc1O)C2=O
97.2

Lookup COc1cc2c(c(OC)c1OC)C(=O)C(Cc1ccccc1O)CO2 (racemic)
15.9

Lookup COc1cc2c(c(OC)c1OC)C(=O)/C(=C/c1ccccc1O)CO2
83

Lookup CNC(=N)NCCC[C@H](N)C(=O)O
14.2

----------
RUN_DESCRIPTION: Cytotoxicity against mouse RAW264.7 cells assessed as cell viability at 50 uM after 24 hrs by CellTiter96 AQueous one solution cell proliferation assay (reference value: 100 +/- 2.4%)
Assay type: cell-based
STATED_CONDITIONS: read-out: Activity
ASSAY_READOUT: viability at 24 h, 50 µM (%)
Just the number please, in %, no unit attached.

# query: viability at 24 h, 50 µM of entry COc1cc(OC)c2c(c1)OCC(Cc1ccccc1O)C2=O (racemic)
55.2

Lookup COc1cc(O)c2c(c1)OCC(Cc1ccccc1O)C2=O (stereo unspecified)
34.2

Lookup COc1cc2c(c(OC)c1OC)C(=O)C(Cc1ccccc1O)CO2 (racemic)
58.7

Lookup COc1ccc2c(c1)OCC(Cc1ccccc1O)C2=O (stereo unspecified)
49.4

Lookup COc1cc2c(c(O)c1OC)C(=O)C(Cc1ccccc1O)CO2 (racemic)
41.1

Lookup COc1cc(O)c2c(c1)OC/C(=C\c1ccccc1O)C2=O
10.7
